Where these numbers come from: paper PMC8147998

molecular target: α7 human nicotinic acetylcholine receptor (α7 nACh receptor) (Homo sapiens, UniProt P36544); construct: gene CHRNA7; homomeric receptor stably expressed in SH-EP1 cells; assay: Fluo-4 Ca2+ transient potentiation in SH-EP1 cells ([…] ACh); no change in […]-α-bungarotoxin binding; format: cell-based; conditions: SH-EP1, read-out: % potentiation at 10 μM
Sequence (P36544 23-502): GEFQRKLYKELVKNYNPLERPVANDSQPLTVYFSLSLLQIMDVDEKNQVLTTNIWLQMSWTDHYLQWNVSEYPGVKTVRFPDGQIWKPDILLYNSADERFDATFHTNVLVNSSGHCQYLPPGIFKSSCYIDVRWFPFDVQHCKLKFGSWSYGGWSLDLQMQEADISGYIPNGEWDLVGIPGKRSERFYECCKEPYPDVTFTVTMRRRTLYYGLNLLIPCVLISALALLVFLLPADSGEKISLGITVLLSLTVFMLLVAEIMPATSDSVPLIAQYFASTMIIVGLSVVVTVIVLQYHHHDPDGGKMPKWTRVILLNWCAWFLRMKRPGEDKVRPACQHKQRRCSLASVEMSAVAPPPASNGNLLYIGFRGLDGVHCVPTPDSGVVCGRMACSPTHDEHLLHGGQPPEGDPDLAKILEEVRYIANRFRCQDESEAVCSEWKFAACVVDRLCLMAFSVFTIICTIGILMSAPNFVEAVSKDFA
Assay metric: activation at 10 µM (%)

chemical_smiles=O=C(CCc1ccc(O)cc1)c1c(O)cc(O)cc1O assay_metric="activation at 10 µM" measured_value=112
chemical_smiles=O=c1c(-c2ccc(O)cc2)coc2cc(O)cc(O)c12 assay_metric="activation at 10 µM" measured_value=83
chemical_smiles=O=c1cc(-c2ccc(O)c(O)c2)oc2cc(O)cc(O)c12 assay_metric="activation at 10 µM" measured_value=72
chemical_smiles=O=c1c(O)c(-c2ccc(O)cc2)oc2cc(O)cc(O)c12 assay_metric="activation at 10 µM" measured_value=81
chemical_smiles=O=c1c(O)c(-c2ccc(O)c(O)c2)oc2c(O)c(O)cc(O)c12 assay_metric="activation at 10 µM" measured_value=65
chemical_smiles=O=c1cc(-c2ccc(O)cc2)oc2cc(O)cc(O)c12 assay_metric="activation at 10 µM" measured_value=48
